The origin of these recorded values is patent EP0015817A1.

protocol-details: Acute toxicity (LD50) in mice
particulars: mouse, in vivo, po; voie orale, souris Swiss NMRI; read-out: DL50 (the source's name)
experimental-endpoint: LD50

Problem: Return reported LD50. Input molecule: c1ccc(COC2CCNCC2)cc1 [Benzyloxy-4 pipéridine (bromhydrate), Bromhydrate de benzyloxy-4 pipéridine]
Solution: 75 mg/kg

----------
protocol-details: Acute toxicity (LD50) in mice
particulars: mouse, in vivo, iv; voie I.V., souris Swiss NMRI; read-out: DL50 (the source's name)
Description: La DL50 a été déterminée chez la souris Swiss NMRI sur le bromhydrate de la benzyloxy-4 pipéridine : - voie orale DL50 75 mg/kg - voie I.V. DL50 32,5 mg/kg
experimental-endpoint: LD50 (mg/kg)
Please reply with the bare figure in mg/kg and do not write the unit itself.

Problem: Output LD50 of c1ccc(COC2CCNCC2)cc1 [Benzyloxy-4 pipéridine (bromhydrate), Bromhydrate de benzyloxy-4 pipéridine]
Solution: 32.5

----------
Test system: duodénum isolé de rat
protocol-details: Antispasmodic action: antagonism of barium chloride-induced contraction on isolated rat duodenum (Magnus method)
particulars: concentration reducing by 50 % the effects of chlorure de baryum; isolated rat duodenum in oxygenated Tyrode, 37°C; read-out: Concentrations molaires inhibitrices 50 %
experimental-endpoint: pIC50
pIC50 here is simply -log10 of the concentration when that concentration is written in mol/L.

Problem: Return value of pIC50 for input c1ccc(COC2CCNCC2)cc1 [Benzyloxy-4 pipéridine (bromhydrate), Bromhydrate de benzyloxy-4 pipéridine] , no commentary.
Solution: 4.74
